FYI, the data here is from patent US5462926A.

Entries and their measured Ki follow.
# SYSTEM NAME: mu opioid receptors (Rattus norvegicus, UniProt P33535)
# Construct: rat forebrain (TRH, mu and delta opioid membrane assays); from tissue; host or cells: rat forebrain membranes
# Sequence (P33535 whole entry): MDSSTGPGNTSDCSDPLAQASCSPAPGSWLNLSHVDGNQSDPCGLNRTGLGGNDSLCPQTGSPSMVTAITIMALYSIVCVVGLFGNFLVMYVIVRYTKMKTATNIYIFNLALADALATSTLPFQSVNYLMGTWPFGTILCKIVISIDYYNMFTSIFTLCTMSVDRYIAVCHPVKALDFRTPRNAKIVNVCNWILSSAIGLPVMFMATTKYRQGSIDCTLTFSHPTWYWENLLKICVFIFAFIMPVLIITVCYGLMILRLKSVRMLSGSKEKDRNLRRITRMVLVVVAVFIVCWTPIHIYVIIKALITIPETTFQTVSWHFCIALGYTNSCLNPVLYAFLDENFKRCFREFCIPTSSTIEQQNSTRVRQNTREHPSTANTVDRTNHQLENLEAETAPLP
# ASSAY SUMMARY: Mu opioid membrane assay, [3H]DAGO, rat forebrain membranes
# Type: binding
# CONDITION CONTEXT: Cheng method; unit inferred; read-out: affinity, [3H]DAGO, Rat Forebrain membranes (mu opioid receptors)
Where a SMILES comes first, the peptide text is derived from it. Bridges are numbered along the chain shown (N, C = ends). [ ]: non-standard residue; d: D form. 2Nal = N[C@@H](Cc1ccc2ccccc2c1)C(=O)O; d2Nal = N[C@H](Cc1ccc2ccccc2c1)C(=O)O

COMPOUND: CC(C)[C@@H]1NC(=O)[C@H](CCCCN)NC(=O)[C@@H](Cc2ccc3ccccc3c2)NC(=O)[C@H](Cc2ccc(O)cc2)NC(=O)[C@@H](NC(=O)[C@H](N)Cc2ccc3ccccc3c2)CSSC[C@@H](C(=O)N[C@@H](Cc2ccc3ccccc3c2)C(N)=O)NC1=O [Analog #17] (H-[d2Nal]CY[d2Nal]KVC[2Nal]-NH2; disulfide 2-7)
Ki: 1570 nM

COMPOUND: NCCCC[C@@H]1NC(=O)[C@@H](Cc2c[nH]c3ccccc23)NC(=O)[C@H](Cc2ccc(O)cc2)NC(=O)[C@@H](NC(=O)[C@H](N)Cc2ccc3ccccc3c2)CSSC[C@@H](C(=O)N[C@@H](Cc2ccc3ccccc3c2)C(N)=O)NC(=O)[C@H](Cc2ccccc2)NC1=O [Analog #13] (H-[d2Nal]CY[dW]KFC[2Nal]-NH2; disulfide 2-7)
Ki: 1640 nM

COMPOUND: CSCC[C@H](NC(=O)[C@H](Cc1ccccc1)NC(=O)[C@H](Cc1c[nH]cn1)NC(=O)CNC(=O)[C@@H](NC(=O)[C@H](C)NC(=O)[C@H](Cc1c[nH]c2ccccc12)NC(=O)[C@H](CC(C)C)NC(=O)[C@H](CC(N)=O)NC(=O)CN)[C@@H](C)O)C(N)=O [NMB, neuromedin B, reference compound]
Ki: > 10000 nM

###

# SYSTEM NAME: NMB receptor (Rattus norvegicus, UniProt P24053)
# Sequence (P24053 whole entry): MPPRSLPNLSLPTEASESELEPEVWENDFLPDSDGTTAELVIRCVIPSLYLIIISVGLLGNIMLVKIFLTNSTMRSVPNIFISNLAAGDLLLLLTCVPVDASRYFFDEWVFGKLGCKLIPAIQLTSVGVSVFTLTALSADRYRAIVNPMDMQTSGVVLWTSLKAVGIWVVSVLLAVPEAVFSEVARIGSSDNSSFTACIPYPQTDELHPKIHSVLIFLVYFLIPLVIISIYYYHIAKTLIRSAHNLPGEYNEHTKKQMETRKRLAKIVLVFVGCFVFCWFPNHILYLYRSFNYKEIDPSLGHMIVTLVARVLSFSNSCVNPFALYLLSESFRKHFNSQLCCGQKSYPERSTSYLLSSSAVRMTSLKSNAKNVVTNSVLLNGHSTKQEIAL
# ASSAY SUMMARY: [3H]inositol phosphates in NMB-R transfected cells (alone or NMB-stimulated)
# Type: cell-based
# Design: a full length NMB-preferring bombesin receptor clone generated from rat esophagus; expressed in transfected cells
# CONDITION CONTEXT: NMB-R transfected cells; 10 μM; 3 nM NMB
Where a SMILES comes first, the peptide text is derived from it. Bridges are numbered along the chain shown (N, C = ends). [ ]: non-standard residue; d: D form. 2Nal = N[C@@H](Cc1ccc2ccccc2c1)C(=O)O; d2Nal = N[C@H](Cc1ccc2ccccc2c1)C(=O)O
PROPERTY NAME: effect at 10 μM on NMB-stimulated increase in [3H]IP

COMPOUND: CC(C)[C@@H]1NC(=O)[C@H](CCCCN)NC(=O)[C@@H](Cc2c[nH]c3ccccc23)NC(=O)[C@H](Cc2ccc(O)cc2)NC(=O)[C@@H](NC(=O)[C@H](N)Cc2ccc3ccccc3c2)CSSC[C@H](C(=O)N[C@@H](Cc2ccc3ccccc3c2)C(N)=O)NC1=O [Analog #11] (H-[d2Nal]CY[dW]KV[dC][2Nal]-NH2; disulfide 2-7)
RESULT: completely inhibited
--
COMPOUND: CC(C)[C@@H]1NC(=O)[C@H](CCCCN)NC(=O)[C@@H](Cc2c[nH]c3ccccc23)NC(=O)[C@H](Cc2ccc3ccccc3c2)NC(=O)[C@@H](NC(=O)[C@H](N)Cc2ccccc2)CSSC[C@@H](C(=O)N[C@H](C(N)=O)[C@@H](C)O)NC1=O [Analog #18] (H-[dF]C[2Nal][dW]KVCT-NH2; disulfide 2-7)
RESULT: no effect
--
COMPOUND: CC(C)[C@@H]1NC(=O)[C@H](CCCCN)NC(=O)[C@@H](Cc2c[nH]c3ccccc23)NC(=O)[C@H](Cc2ccc(O)cc2)NC(=O)[C@@H](NC(=O)[C@H](N)Cc2ccc3ccccc3c2)CSSC[C@@H](C(=O)N[C@@H](Cc2ccc3ccccc3c2)C(N)=O)NC1=O [Analog #1] (H-[d2Nal]CY[dW]KVC[2Nal]-NH2; disulfide 2-7)
RESULT: completely inhibited
--
COMPOUND: C[C@@H](O)[C@H](NC(=O)[C@@H]1CSSC[C@H](NC(=O)[C@H](N)Cc2ccc3ccccc3c2)C(=O)N[C@@H](Cc2ccc(O)cc2)C(=O)N[C@H](Cc2c[nH]c3ccccc23)C(=O)N[C@@H](CCCCN)C(=O)N[C@@H]([C@@H](C)O)C(=O)N1)C(N)=O
RESULT: no effect
--
COMPOUND: CC(C)[C@@H]1NC(=O)[C@H](CCCCN)NC(=O)[C@@H](Cc2ccc3ccccc3c2)NC(=O)[C@H](Cc2ccc(O)cc2)NC(=O)[C@@H](NC(=O)[C@H](N)Cc2ccc3ccccc3c2)CSSC[C@@H](C(=O)N[C@@H](Cc2ccc3ccccc3c2)C(N)=O)NC1=O [Analog #17] (H-[d2Nal]CY[d2Nal]KVC[2Nal]-NH2; disulfide 2-7)
RESULT: completely inhibited
--
COMPOUND: CC(C)[C@@H]1NC(=O)[C@H](CCCCN)NC(=O)[C@@H](Cc2c[nH]c3ccccc23)NC(=O)[C@H](Cc2ccc(O)cc2)NC(=O)[C@@H](NC(=O)[C@H](N)Cc2ccc3ccccc3c2)CSSC[C@@H](C(=O)N[C@H](C(N)=O)[C@@H](C)O)NC1=O
RESULT: no effect
--
COMPOUND: NCCCC[C@@H]1NC(=O)[C@@H](Cc2c[nH]c3ccccc23)NC(=O)[C@H](Cc2ccc(O)cc2)NC(=O)[C@@H](NC(=O)[C@H](N)Cc2ccc3ccccc3c2)CSSC[C@@H](C(=O)N[C@@H](Cc2ccc3ccccc3c2)C(N)=O)NC(=O)[C@H](Cc2ccccc2)NC1=O [Analog #13] (H-[d2Nal]CY[dW]KFC[2Nal]-NH2; disulfide 2-7)
RESULT: completely inhibited
--
COMPOUND: CC(C)[C@@H]1NC(=O)[C@H](CCCCN)NC(=O)[C@@H](Cc2c[nH]c3ccccc23)NC(=O)[C@H](Cc2ccc(O)cc2)NC(=O)[C@H](NC(=O)[C@H](N)Cc2ccc3ccccc3c2)CSSC[C@@H](C(=O)N[C@@H](Cc2ccc3ccccc3c2)C(N)=O)NC1=O [Analog #10] (H-[d2Nal][dC]Y[dW]KVC[2Nal]-NH2; disulfide 2-7)
RESULT: completely inhibited
